Entry source: patent US20080221134A1

Target: Adenosine A1 (Homo sapiens, UniProt P30542)
Sequence (P30542 1-326): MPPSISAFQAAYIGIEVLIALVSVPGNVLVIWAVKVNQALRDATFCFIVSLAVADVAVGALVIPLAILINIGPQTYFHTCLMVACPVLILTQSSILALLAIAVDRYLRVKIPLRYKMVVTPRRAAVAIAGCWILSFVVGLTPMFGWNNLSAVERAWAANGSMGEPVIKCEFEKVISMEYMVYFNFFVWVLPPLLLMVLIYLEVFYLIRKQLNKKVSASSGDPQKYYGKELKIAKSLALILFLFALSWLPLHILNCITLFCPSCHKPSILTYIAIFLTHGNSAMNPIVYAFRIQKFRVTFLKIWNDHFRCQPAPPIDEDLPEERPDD
Assay: Functional assay (luciferase reporter), inhibition of A1 adenosine receptor
Conditions: Ki=IC50/(1+agonist concentration/EC50); read-out: A1 AR Ki
pKi: −log10 of the molar value.
METRIC NAME: pKi

{"columns": ["COMPOUND", "TGT", "RECORDED RESULT"],
 "data": [
  ["C#CCn1c(=O)c2c(nc(C#Cc3ccc(OC)c(OC)c3)n2C)n(CCCO)c1=O [drawing 622]", "Adenosine A1 (Homo sapiens, UniProt P30542)", 6.40],
  ["C#CCn1c(=O)c2c(nc(C#Cc3cccc(OC)c3)n2CC#C)n(C)c1=O [drawing 621]", "Adenosine A1 (Homo sapiens, UniProt P30542)", 6.30],
  ["C#CCn1c(=O)c2c(nc(C#Cc3cccc(C)c3)n2C)n(CCCO)c1=O [drawing 623]", "Adenosine A1 (Homo sapiens, UniProt P30542)", 6.54]
]}

[a] C#CCn1c(=O)c2c(nc(C#Cc3cccc(OC)c3)n2C)n(CCCO)c1=O [drawing 620]
[b] C#CCn1c(=O)c2c(nc(C#Cc3ccc(OC)c(OC)c3)n2C)n(CC)c1=O [drawing 618]
Select the item whose pKi value is smaller, choosing between a and b . Respond with the label that goes with your answer.
b

====

Target: A2A adenosine receptors from rat striatum (Rattus norvegicus)
Construct: A2A adenosine receptors from rat striatum; from tissue; host or cells: rat striatum
Sequence (P30543 whole entry): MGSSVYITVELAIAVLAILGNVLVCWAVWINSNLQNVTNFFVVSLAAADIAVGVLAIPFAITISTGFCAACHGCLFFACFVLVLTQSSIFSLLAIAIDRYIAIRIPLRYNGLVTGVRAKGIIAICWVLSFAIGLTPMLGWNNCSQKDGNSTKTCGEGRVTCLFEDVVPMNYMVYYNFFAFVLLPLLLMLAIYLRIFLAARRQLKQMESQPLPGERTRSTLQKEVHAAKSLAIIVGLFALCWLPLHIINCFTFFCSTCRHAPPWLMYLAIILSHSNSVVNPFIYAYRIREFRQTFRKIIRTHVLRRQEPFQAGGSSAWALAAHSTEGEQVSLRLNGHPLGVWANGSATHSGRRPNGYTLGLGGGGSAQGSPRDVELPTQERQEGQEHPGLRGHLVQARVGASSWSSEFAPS
Experiment: Sodium chloride-shift experiment
Format: binding
Conditions: Ki (+100 mM NaCl) rA2A rat striatum [3H] MSX-2 (n = 3), +100 mM NaCl
Method: The compounds were tested in a sodium chloride-shift experiment of whether they are functionally coupled to A2A adenosine receptors from rat striatum. […] The presence of a relatively high concentration of sodium chloride should not influence the affinity of the antagonists. However, the affinity of A2A AR agonists should be attenuated and therefore lead to an elevated IC50-value. […] This confirms the A2A-antagonistic function of the compounds. […]
METRIC NAME: Ki (nM)

{"columns": ["COMPOUND", "METRIC NAME", "RECORDED RESULT"],
 "data": [
  ["C#CCn1c(=O)c2c(nc(C#Cc3cccc(Cl)c3)n2C)n(C)c1=O [drawing 616]", "Ki", 39.5]
]}

[A] C#CCn1c(=O)c2c(nc(C#Cc3cccc(C)c3)n2C)n(C)c1=O [drawing 615]
[B] C#CCn1c(=O)c2c(nc(C#Cc3cccc(OC)c3)n2C)n(C)c1=O [drawing 614]
Select the item whose Ki value is smaller, choosing between A and B . Respond with the label that goes with your answer.
B
(B: 33.2 nM, A: 53.1 nM)
